- STUDY SYSTEM: UniProt:P05177
- Sequence (P05177 whole entry): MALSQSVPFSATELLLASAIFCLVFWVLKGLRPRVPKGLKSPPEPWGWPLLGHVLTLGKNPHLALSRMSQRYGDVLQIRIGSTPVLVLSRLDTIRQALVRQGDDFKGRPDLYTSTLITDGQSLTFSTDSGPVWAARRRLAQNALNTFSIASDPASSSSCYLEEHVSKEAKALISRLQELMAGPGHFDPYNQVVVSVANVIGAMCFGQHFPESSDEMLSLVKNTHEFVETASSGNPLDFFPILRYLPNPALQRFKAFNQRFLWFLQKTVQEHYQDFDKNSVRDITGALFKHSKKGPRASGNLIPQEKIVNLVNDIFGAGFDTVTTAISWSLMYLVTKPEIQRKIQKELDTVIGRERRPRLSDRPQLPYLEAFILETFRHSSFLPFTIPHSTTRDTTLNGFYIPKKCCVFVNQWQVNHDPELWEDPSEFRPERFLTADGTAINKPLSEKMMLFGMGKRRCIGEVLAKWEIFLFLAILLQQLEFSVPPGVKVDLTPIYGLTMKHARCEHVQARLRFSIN
- PROTOCOL DETAILS: CYP inhibition in human liver microsomes, CYP1A2
MEASURED QUANTITY: IC50 (nM)

1) CNC(=O)Oc1cc(C)c(SC)c(C)c1 ... 710
2) CSc1nc2cc(Cl)c(Oc3cccc(Cl)c3Cl)cc2[nH]1 [Triclabendazole, reference compound] ... 1070

* * *

- STUDY SYSTEM: CYP2C8 (Homo sapiens)
- Sequence (P10632 whole entry): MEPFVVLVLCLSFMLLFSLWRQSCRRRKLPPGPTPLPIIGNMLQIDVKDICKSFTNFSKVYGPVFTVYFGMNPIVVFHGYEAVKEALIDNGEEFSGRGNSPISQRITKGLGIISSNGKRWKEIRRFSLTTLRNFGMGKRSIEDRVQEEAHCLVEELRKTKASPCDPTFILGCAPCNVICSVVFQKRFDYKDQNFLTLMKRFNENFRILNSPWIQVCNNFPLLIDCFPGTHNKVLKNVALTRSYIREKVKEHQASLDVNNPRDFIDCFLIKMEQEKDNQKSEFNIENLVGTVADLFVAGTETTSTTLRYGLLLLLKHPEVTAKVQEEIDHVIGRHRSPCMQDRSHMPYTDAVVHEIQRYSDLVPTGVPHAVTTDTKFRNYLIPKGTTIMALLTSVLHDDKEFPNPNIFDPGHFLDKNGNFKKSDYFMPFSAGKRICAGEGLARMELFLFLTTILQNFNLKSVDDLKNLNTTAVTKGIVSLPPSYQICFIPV
- PROTOCOL DETAILS: CYP inhibition in human liver microsomes, CYP2C8
- TEST CONTEXT: human, human liver microsomes, pH 7.4, probe paclitaxel
MEASURED QUANTITY: inhibition at 10 µM (%)

1. CSc1nc2cc(Cl)c(Oc3cccc(Cl)c3Cl)cc2[nH]1 [Triclabendazole, reference compound] ... 79.7
2. CNC(=O)O/N=C/C(C)(C)S(C)(=O)=O ... 4.1
3. O=C1Cc2cc(CCN3CCN(c4nsc5ccccc45)CC3)c(Cl)cc2N1 [Ziprasidone, ziprasidone, reference compound] ... 12
4. CNC(=O)O/N=C/C(C)(C)[S+](C)[O-] (stereo not drawn) [Aldicarb sulfoxide, aldicarb sulfoxide] ... 2.32
5. CC(C)(O)c1ccccc1CC[C@@H](SCC1(CC(=O)O)CC1)c1cccc(/C=C/c2ccc3ccc(Cl)cc3n2)c1 [Montelukast, montelukast, reference compound] ... 97.3

* * *

- PROTOCOL DETAILS: Metabolic stability, incubation with human liver cytosol
- Assay type: in vitro ADME
- TEST CONTEXT: 1 µM test compound, 1 mg/mL protein
Consider the following compounds and their measured % Metabolized at 30 min Incubation with Human Liver Fractions/Enzymes Cytosol readings.
MEASURED QUANTITY: % Metabolized at 30 min Incubation with Human Liver Fractions/Enzymes Cytosol

1. CC(C)(O)c1ccccc1CC[C@@H](SCC1(CC(=O)O)CC1)c1cccc(/C=C/c2ccc3ccc(Cl)cc3n2)c1 [Montelukast, montelukast, reference compound] ... 10.13%
2. CN(Cc1cnc2nc(N)nc(N)c2n1)c1ccc(C(=O)N[C@@H](CCC(=O)O)C(=O)O)cc1 [Methotrexate, reference compound] ... 3.18%
3. CSc1nc2cc(Cl)c(Oc3cccc(Cl)c3Cl)cc2[nH]1 [Triclabendazole, reference compound] ... 12.40%
4. CNC(=O)O/N=C/C(C)(C)SC [Aldicarb, aldicarb] ... 21.08%
5. CNC(=O)Oc1cc(C)c(SC)c(C)c1 [Methiocarb, methiocarb] ... 6.93%
6. CCC[S+]([O-])c1ccc2[nH]c(NC(=O)OC)nc2c1 (stereo not shown) [Albendazole sulfoxide, albendazole sulfoxide] ... 0.20%
7. c1ccc2cnncc2c1 [Phthalazine, phthalazine, reference compound] ... 90.89%

* * *

- STUDY SYSTEM: CYP3A4 (Homo sapiens, UniProt P08684)
- Sequence (P08684 2-503): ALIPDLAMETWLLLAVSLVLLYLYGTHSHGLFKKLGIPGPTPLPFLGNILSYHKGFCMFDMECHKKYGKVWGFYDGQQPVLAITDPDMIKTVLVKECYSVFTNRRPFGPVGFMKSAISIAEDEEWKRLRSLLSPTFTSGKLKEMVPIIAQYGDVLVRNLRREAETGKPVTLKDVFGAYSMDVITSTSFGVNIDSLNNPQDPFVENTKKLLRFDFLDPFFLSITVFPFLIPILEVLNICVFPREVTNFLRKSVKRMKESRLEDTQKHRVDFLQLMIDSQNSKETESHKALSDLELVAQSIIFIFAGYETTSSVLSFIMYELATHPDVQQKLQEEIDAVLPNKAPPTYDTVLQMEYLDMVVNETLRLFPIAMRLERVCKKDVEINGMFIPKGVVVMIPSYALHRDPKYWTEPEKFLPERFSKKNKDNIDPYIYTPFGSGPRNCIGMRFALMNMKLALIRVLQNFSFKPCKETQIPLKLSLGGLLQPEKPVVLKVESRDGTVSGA
MEASURED QUANTITY: IC50

1. CSc1nc2cc(Cl)c(Oc3cccc(Cl)c3Cl)cc2[nH]1 [Triclabendazole, reference compound] ... 15.1 µM

* * *

- STUDY SYSTEM: rCYP2C19 (Homo sapiens)
- Sequence (P33261 whole entry): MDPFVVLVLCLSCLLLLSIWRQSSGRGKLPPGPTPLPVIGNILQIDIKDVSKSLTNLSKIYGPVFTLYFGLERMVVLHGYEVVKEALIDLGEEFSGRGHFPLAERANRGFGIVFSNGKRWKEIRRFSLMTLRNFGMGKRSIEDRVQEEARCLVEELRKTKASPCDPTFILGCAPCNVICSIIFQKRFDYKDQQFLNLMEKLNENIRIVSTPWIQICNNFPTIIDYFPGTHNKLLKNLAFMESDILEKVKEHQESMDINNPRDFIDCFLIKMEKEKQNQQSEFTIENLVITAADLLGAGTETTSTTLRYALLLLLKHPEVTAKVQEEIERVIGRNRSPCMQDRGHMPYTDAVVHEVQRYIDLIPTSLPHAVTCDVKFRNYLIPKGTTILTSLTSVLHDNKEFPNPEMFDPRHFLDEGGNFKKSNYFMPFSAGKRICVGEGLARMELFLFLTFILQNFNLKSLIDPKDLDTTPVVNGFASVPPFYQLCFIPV
- PROTOCOL DETAILS: Metabolic stability / reaction phenotyping with recombinant human CYP2C19
- TEST CONTEXT: human, recombinant human CYP2C19, 1 µM, pH 7.4
Each entry gets label 0 if its Predicted Microsomal Clint, CYP2C19 stays under 1 µL/min/mg Protein, and label 1 if its Predicted Microsomal Clint, CYP2C19 is 1 µL/min/mg Protein or above.

1) CNC(=O)O/N=C/C(C)(C)[S+](C)[O-] (centres unmarked) [Aldicarb sulfoxide, aldicarb sulfoxide] ... label 0
2) CNC(=O)Oc1cc(C)c(SC)c(C)c1 ... label 1
3) O=C1Cc2cc(CCN3CCN(c4nsc5ccccc45)CC3)c(Cl)cc2N1 [Ziprasidone, ziprasidone, reference compound] ... label 1
4) CSc1nc2cc(Cl)c(Oc3cccc(Cl)c3Cl)cc2[nH]1 [Triclabendazole, reference compound] ... label 1
5) CCCSc1ccc2nc(NC(=O)OC)[nH]c2c1 [Albendazole, albendazole, reference compound] ... label 1

Every entry's value here was drawn from paper PMC6416464.
